- targetOrSystem: recombinant eIF4E (Homo sapiens (Human), UniProt P06730)
- Sequence (P06730 whole entry): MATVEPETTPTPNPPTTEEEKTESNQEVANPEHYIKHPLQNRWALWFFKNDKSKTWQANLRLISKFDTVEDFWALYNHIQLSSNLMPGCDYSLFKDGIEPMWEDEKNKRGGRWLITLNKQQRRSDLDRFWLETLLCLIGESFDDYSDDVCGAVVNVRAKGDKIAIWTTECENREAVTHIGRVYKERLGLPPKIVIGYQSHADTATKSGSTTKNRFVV
- experimentSummary: Fluorescence polarization competition assay for eIF4E binding potency
- measurementSetup: fluorescence polarization competition, 75 nM recombinant eIF4E, 20 nM EDA-m7GDP-ATTO-550; IC50 class; read-out: elF4E FP
- Protocol: Compounds were screened for eIF4E binding potency using a fluorescence polarization competition assay. All binding reactions were performed in fluorescence polarization buffer (FPB) containing 20 mM Tris pH 7.5, 100 mM NaCl, 1 mM DTT, and 0.02% Tween-20. Final binding reactions contained 75 nM recombinant eIF4E (Beryllium, custom order), 20 nM EDA-m^7GDP-ATTO-550 (Jena Bioscience, NU-827-550) and varying concentrations of the inhibitory compound of interest. […]
pIC50: −log10 of the molar value.
outcomeMeasure: pIC50

mol	pIC50
Cc1cc(-c2cc(Cl)ccc2OCCn2c(C)nc3cnc(C#N)cc3c2=O)c2scc(C(=O)O)c2n1	> 7.30

Enquiry: Name the recorded pIC50 of the item N#Cc1cc(C(F)(F)F)cc2nc(Cl)n(CCOc3ccc(Cl)cc3-c3cccc(C(=O)O)c3)c(=O)c12 in your answer.
Return: > 7.30

Enquiry: Name the recorded pIC50 of the item Cc1nc2c(C(F)(F)F)ccc(C#N)c2c(=O)n1CCOc1ccc(Cl)cc1-c1ccnc2c(C(=O)O)csc12 in your answer.
Return: 6.00 to 7.30

Enquiry: Name the recorded pIC50 of the item Cc1nc2cc(C(F)(F)F)c(N3CCN(C)CC3)c(C#N)c2c(=O)n1CCOc1ccc(Cl)cc1-c1ccccc1 in your answer.
Return: 6.00 to 7.30

Enquiry: Name the recorded pIC50 of the item O=C(O)c1cccc(-c2cc(Cl)ccc2OCCn2cnc3cnc(-n4cccn4)cc3c2=O)c1 in your answer.
Return: 6.00 to 7.30

Enquiry: Name the recorded pIC50 of the item Cc1nc2cc(F)c(CN(C)C)c(C#N)c2c(=O)n1CCOc1ccc(Cl)cc1-c1ccnc2c(C(=O)O)csc12 in your answer.
Return: 6.00 to 7.30

---

- targetOrSystem: recombinant eIF4E (Homo sapiens (Human), UniProt P06730)
- experimentSummary: Fluorescence polarization competition assay for eIF4E binding potency
- measurementSetup: inhibition of eIF4E/EDA-m7GDP-ATTO-550 binding by 50%; Table 4B calculated values; read-out: IC50
- Method: Compounds were screened for eIF4E binding potency using a fluorescence polarization competition assay. All binding reactions were performed in fluorescence polarization buffer (FPB) containing 20 mM Tris pH 7.5, 100 mM NaCl, 1 mM DTT, and 0.02% Tween-20. Final binding reactions contained 75 nM recombinant eIF4E (Beryllium, custom order), 20 nM EDA-m^7GDP-ATTO-550 (Jena Bioscience, NU-827-550) and varying concentrations of the inhibitory compound of interest. […]
outcomeMeasure: IC50 (nM)

mol	unitAbbreviation	IC50
Cc1nc2cnc(N3CC4(CC(N(C)C5CC5)C4)C3)c(C#N)c2c(=O)n1CC#Cc1ccc(Cl)cc1-c1ccnc2c(C(=O)O)csc12	nM	12.8
Cc1nc2cnc(N3CCN(CC4CC4)CC3)c(C#N)c2c(=O)n1CC#Cc1ccc(Cl)cc1-c1ccnc2c(C(=O)O)csc12	nM	22.9
Cc1ccc(C)c(-c2c(C(F)(F)F)cc3nc(C)n(CCOc4ccc(Cl)cc4-c4cc(C)nc5c(C(=O)O)csc45)c(=O)c3c2C#N)n1	nM	17.6

All values here come from patent US11286268B1.
